# Measured On: human Siglec-7 on primary human monocyte-derived dendritic cells (human, UniProt Q9Y286 19-467)
# Sequence (Q9Y286 19-467): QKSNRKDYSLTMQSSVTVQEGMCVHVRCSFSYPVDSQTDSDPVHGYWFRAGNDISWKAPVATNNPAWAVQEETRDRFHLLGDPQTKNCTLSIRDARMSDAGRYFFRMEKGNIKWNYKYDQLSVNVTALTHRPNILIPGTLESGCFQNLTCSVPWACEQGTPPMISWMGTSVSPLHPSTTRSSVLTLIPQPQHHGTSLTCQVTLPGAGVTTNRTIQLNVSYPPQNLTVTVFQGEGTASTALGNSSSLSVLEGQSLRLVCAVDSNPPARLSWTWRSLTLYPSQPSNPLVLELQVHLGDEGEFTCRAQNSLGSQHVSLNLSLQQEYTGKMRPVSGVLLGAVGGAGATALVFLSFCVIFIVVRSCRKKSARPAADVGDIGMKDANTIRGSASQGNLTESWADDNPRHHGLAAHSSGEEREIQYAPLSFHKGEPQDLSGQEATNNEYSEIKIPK
# Method Description: cell-based or functional assay
Reported Metric: Maximal downregulation (% Siglec-7 remaining) (%)
Return type: number; implicit unit %.

| Binder | Scale Unit | Observed |
| --- | --- | --- |
| S7AB-H8.10.2 (antibody, V domains shown) VH: QVQLVQSGAEVKKPGASVKVSCKASGYAFTEAWMNWVRQARGQRLEWIGRIFPGYGHTNYAQKFQGRATLTEDTSTSTAYMELSSLRSEDTAVYYCARDYSDYYFDYWGQGTLVTVSS VL: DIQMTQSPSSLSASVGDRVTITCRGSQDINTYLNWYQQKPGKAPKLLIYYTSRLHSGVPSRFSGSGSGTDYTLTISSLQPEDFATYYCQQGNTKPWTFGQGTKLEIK | % | 12.1 |

Now for another entry.
What value of Maximal downregulation (% Siglec-7 remaining) has been recorded for this entry: S7AB-H8.44.1 (antibody, V domains shown) VH: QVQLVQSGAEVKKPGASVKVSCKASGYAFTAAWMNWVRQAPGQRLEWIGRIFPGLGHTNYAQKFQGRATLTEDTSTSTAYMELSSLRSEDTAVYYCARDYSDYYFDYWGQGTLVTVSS VL: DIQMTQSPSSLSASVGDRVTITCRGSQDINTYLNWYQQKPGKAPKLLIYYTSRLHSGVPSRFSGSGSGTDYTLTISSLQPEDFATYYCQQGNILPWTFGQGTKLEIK
4.1
